# protocolText: Int 1-4 and gemcitabine comparative PK in male cynomolgus monkey (study g)
# Assay type: in vivo
# details: plasma, male cynomolgus monkey, after iv gemcitabine 2.65 mg/kg
endpointName: clearance (mL/min/kg)
Your answer is read as mL/min/kg, so omit the unit and give the number.

Give its clearance value. Item: `Nc1ccn([C@@H]2O[C@H](CO)[C@@H](O)C2(F)F)c(=O)n1` 323

---

# Tested on: UT-SCC-8
# protocolText: Tumor cell proliferation (alamarBlue) cytotoxicity assay, UT-SCC-8
# Type: cell-based, human
# details: Homo sapiens; UT-SCC-8, 72 hours treatment
Counter-ions that a name gives are not always drawn.
endpointName: pIC50
Just the number, please; pIC50 means minus log10 of the concentration in mol/L.

API: value(readout= pIC50, system= UT-SCC-8, query= COc1cc(OC)c2oc(COC(=O)Nc3ccn([C@@H]4O[C@H](COP(=O)(O)O)[C@@H](O)C4(F)F)c(=O)n3)cc2c1 [Compound 1, ammonium salt] ) 7.64

API: value(readout= pIC50, system= UT-SCC-8, query= COc1cc(OC)c2oc(COC(=O)Nc3ccn([C@@H]4O[C@H](CO)[C@@H](O)C4(F)F)c(=O)n3)cc2c1 [Int 1-4] ) 7.49

API: value(readout= pIC50, system= UT-SCC-8, query= Nc1ccn([C@@H]2O[C@H](CO)[C@@H](O)C2(F)F)c(=O)n1 [Gemcitabine, gemcitabine] ) 7.66

---

# protocolText: Int 1-4 and gemcitabine comparative PK in male cynomolgus monkey (study g)
# Format: in vivo
# details: plasma, male cynomolgus monkey, after iv Int 1-4 5 mg/kg (study g); read-out: AUC0-inf
endpointName: AUC(0-inf) (ng·h/mL)
Your answer is read as ng·h/mL, so omit the unit and give the number.

Give its AUC(0-inf) value. Item: `COc1cc(OC)c2oc(COC(=O)Nc3ccn([C@@H]4O[C@H](CO)[C@@H](O)C4(F)F)c(=O)n3)cc2c1` 5960

Give its AUC(0-inf) value. Item: `Nc1ccn([C@@H]2O[C@H](CO)[C@@H](O)C2(F)F)c(=O)n1` 8.13

---

# protocolText: Int 1-4 and gemcitabine comparative PK in male cynomolgus monkey (study g)
# Type: in vivo
# details: plasma, male cynomolgus monkey, after iv gemcitabine 2.65 mg/kg
endpointName: C0 (ng/mL)
Your answer is read as ng/mL, so omit the unit and give the number.

Give its C0 value. Item: `Nc1ccn([C@@H]2O[C@H](CO)[C@@H](O)C2(F)F)c(=O)n1` 17000

---

I'd appreciate it if you could supply MRT inf values for the items below.
# protocolText: Comparative plasma PK of Compound 1 versus Int 1-4 in male CD-1 mice (study b)
# Assay type: in vivo
# details: male, CD-1, mouse, iv, 10 mg/kg, after iv Int 1-4 10.0 mg/kg, Formulation 1, read-out: MRT0-inf
Your answer is read as h, so omit the unit and give the number.

Give its MRT inf value. Item: COc1cc(OC)c2oc(COC(=O)Nc3ccn([C@@H]4O[C@H](CO)[C@@H](O)C4(F)F)c(=O)n3)cc2c1 [Int 1-4] 0.756

Give its MRT inf value. Item: Nc1ccn([C@@H]2O[C@H](CO)[C@@H](O)C2(F)F)c(=O)n1 [Gemcitabine, gemcitabine] 1.98

---

# protocolText: Comparative plasma PK of Compound 1 versus Int 1-4 in male CD-1 mice (study b)
# Assay type: in vivo
# details: male, CD-1, mouse, iv, 11.6 mg/kg, after iv Compound 1 11.6 mg/kg, read-out: Cmax
I'd appreciate it if you could supply Cmax values for the items below.
Your answer is read as ng/mL, so omit the unit and give the number.

Give its Cmax value. Item: Nc1ccn([C@@H]2O[C@H](CO)[C@@H](O)C2(F)F)c(=O)n1 [Gemcitabine, gemcitabine] 152

Give its Cmax value. Item: COc1cc(OC)c2oc(COC(=O)Nc3ccn([C@@H]4O[C@H](CO)[C@@H](O)C4(F)F)c(=O)n3)cc2c1 [Int 1-4] 20000

---

# protocolText: Comparative plasma PK of Compound 1 versus Int 1-4 in male CD-1 mice (study b)
# Format: in vivo
# details: male, CD-1, mouse, iv, 10 mg/kg, after iv Int 1-4 10.0 mg/kg, Formulation 2
endpointName: half-life (min)
Your answer is read as min, so omit the unit and give the number.

Give its half-life value. Item: Nc1ccn([C@@H]2O[C@H](CO)[C@@H](O)C2(F)F)c(=O)n1 [Gemcitabine, gemcitabine] 99.6

Give its half-life value. Item: COc1cc(OC)c2oc(COC(=O)Nc3ccn([C@@H]4O[C@H](CO)[C@@H](O)C4(F)F)c(=O)n3)cc2c1 [Int 1-4] 109

---

I'd appreciate it if you could supply microsomal CLint values for the items below.
# protocolText: Liver microsomal stability, human
# Assay type: in vitro ADME
# details: human, liver microsomes
Your answer is read as µL/min/mg, so omit the unit and give the number.

Give its microsomal CLint value. Item: `COc1cc(OC)c2oc(COC(=O)Nc3ccn([C@@H]4O[C@H](CO)[C@@H](O)C4(F)F)c(=O)n3)cc2c1` 0.747

Give its microsomal CLint value. Item: `Nc1ccn([C@@H]2O[C@H](CO)[C@@H](O)C2(F)F)c(=O)n1` 68.8

---

# protocolText: Metabolic stability in liver hepatocytes, mouse
# Type: in vitro ADME
# details: read-out: t1/2 mean ± SE
endpointName: half-life

Give its half-life value. Item: `COc1cc(OC)c2oc(COC(=O)Nc3ccn([C@@H]4O[C@H](CO)[C@@H](O)C4(F)F)c(=O)n3)cc2c1` 1.73 h

Give its half-life value. Item: `Nc1ccn([C@@H]2O[C@H](CO)[C@@H](O)C2(F)F)c(=O)n1` 22.5 h

---

# protocolText: Monkey liver S9 stability
# Format: in vitro ADME
# details: monkey liver S9; read-out: t1/2 Mean ± SE
I'd appreciate it if you could supply half-life values for the items below.
Your answer is read as min, so omit the unit and give the number.

Give its half-life value. Item: COc1cc2ccc(=O)oc2cc1O [Scopoletin, reference compound] 5

Give its half-life value. Item: `COc1cc(OC)c2oc(COC(=O)Nc3ccn([C@@H]4O[C@H](CO)[C@@H](O)C4(F)F)c(=O)n3)cc2c1` 17.9

---

# protocolText: Comparative dog plasma PK of Int 1-4 versus gemcitabine (study k)
# Format: in vivo
# details: male beagle dog, after iv Int 1-4 10 mg/kg (study k)
# Experimental: Objectives: to compare the plasma pharmacokinetics and stability of Int-4 in plasma following single intravenous infusion administration of Int 1-4 at 5 mg/kg and 10 mg/kg versus gemcitabine at 5 mg/kg in the male Beagle dog
endpointName: C0 (µg/mL)
Your answer is read as µg/mL, so omit the unit and give the number.

Give its C0 value. Item: `COc1cc(OC)c2oc(COC(=O)Nc3ccn([C@@H]4O[C@H](CO)[C@@H](O)C4(F)F)c(=O)n3)cc2c1` 90.9

---

# protocolText: Liver microsomal stability, human
# Assay type: in vitro ADME
# details: human, liver microsomes, text value
endpointName: microsomal CLint (µL/min/mg)
Your answer is read as µL/min/mg, so omit the unit and give the number.

Give its microsomal CLint value. Item: `COc1cc(OC)c2oc(COC(=O)Nc3ccn([C@@H]4O[C@H](CO)[C@@H](O)C4(F)F)c(=O)n3)cc2c1` 0.75

---

# protocolText: Compound 1 and gemcitabine plasma PK in the male cynomolgus monkey (study h)
# Format: in vivo
# details: plasma, after iv Compound 1 5 mg/kg
Structures can show the parent of a compound that is named as a salt.
endpointName: AUC(0-t) (ng·h/mL)
Your answer is read as ng·h/mL, so omit the unit and give the number.

Give its AUC(0-t) value. Item: `COc1cc(OC)c2oc(COC(=O)Nc3ccn([C@@H]4O[C@H](CO)[C@@H](O)C4(F)F)c(=O)n3)cc2c1` 4380

Give its AUC(0-t) value. Item: `Nc1ccn([C@@H]2O[C@H](CO)[C@@H](O)C2(F)F)c(=O)n1` 7.85

Give its AUC(0-t) value. Item: COc1cc(OC)c2oc(COC(=O)Nc3ccn([C@@H]4O[C@H](COP(=O)(O)O)[C@@H](O)C4(F)F)c(=O)n3)cc2c1 [Compound 1, ammonium salt] 1830

---

# protocolText: Comparative plasma PK of Int 1-4 versus gemcitabine in mouse (study a)
# Assay type: in vivo
# details: mouse; plasma, CD-1 mice, after iv Int 1-4 9.4 mg/kg; read-out: MRT0-last
endpointName: MRT last
Give the figure together with its unit, number first.

Give its MRT last value. Item: Nc1ccn([C@@H]2O[C@H](CO)[C@@H](O)C2(F)F)c(=O)n1 [Gemcitabine, gemcitabine] 52.5 min

Give its MRT last value. Item: COc1cc(OC)c2oc(COC(=O)Nc3ccn([C@@H]4O[C@H](CO)[C@@H](O)C4(F)F)c(=O)n3)cc2c1 [Int 1-4] 19.7 min
